- assay.system: Chromo domain-containing protein 1 (Saccharomyces cerevisiae (strain ATCC 204508 / S288c) (Baker's yeast)) (UniProt P32657)
- Sequence (P32657 whole entry, the tested form may be a part): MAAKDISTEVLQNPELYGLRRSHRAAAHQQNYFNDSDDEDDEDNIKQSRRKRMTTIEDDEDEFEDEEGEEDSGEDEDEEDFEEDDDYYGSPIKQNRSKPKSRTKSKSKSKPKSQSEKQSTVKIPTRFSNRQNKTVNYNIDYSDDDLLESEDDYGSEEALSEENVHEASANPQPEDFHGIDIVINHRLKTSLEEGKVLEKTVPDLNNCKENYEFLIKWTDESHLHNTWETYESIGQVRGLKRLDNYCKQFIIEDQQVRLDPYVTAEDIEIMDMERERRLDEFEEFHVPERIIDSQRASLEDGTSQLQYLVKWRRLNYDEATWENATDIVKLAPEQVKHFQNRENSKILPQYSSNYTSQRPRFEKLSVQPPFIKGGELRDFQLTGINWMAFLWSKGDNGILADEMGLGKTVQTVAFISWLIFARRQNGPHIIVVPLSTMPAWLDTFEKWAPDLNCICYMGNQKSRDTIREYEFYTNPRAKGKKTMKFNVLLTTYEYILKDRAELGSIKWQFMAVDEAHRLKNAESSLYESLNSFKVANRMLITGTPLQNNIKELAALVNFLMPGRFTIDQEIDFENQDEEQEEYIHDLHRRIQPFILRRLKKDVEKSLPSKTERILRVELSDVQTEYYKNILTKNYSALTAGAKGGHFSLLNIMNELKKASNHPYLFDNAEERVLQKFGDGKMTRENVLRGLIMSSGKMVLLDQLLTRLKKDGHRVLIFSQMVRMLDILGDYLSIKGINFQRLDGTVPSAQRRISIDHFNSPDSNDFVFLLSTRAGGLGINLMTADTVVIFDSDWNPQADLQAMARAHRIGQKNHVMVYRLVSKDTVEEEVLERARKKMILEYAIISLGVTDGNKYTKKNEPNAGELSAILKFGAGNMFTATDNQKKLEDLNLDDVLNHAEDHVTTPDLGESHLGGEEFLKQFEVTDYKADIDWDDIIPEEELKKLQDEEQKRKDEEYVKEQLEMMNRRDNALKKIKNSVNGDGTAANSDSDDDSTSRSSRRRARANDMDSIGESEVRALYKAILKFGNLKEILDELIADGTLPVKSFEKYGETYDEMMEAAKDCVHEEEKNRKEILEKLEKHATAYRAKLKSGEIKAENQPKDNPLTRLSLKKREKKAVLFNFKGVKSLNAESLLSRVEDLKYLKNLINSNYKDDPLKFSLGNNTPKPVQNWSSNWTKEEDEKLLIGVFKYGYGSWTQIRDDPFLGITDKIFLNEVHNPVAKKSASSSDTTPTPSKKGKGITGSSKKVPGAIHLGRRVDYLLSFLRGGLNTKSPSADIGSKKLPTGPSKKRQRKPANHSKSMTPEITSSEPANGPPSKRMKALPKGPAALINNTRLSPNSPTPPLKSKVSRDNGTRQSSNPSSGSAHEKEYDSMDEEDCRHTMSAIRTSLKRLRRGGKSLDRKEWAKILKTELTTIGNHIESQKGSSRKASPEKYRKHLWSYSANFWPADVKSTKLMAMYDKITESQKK
- test.name: ScCHD-1 Enzyme Inhibition Assay
- Format: functional
- Design: scale not given: in the data most compounds retested in dose-response had high values
- condition.notes: 30 µM
test.readout: Percent Effect (%)
Enter your answer as a number in %; do not include the unit.

compound	Percent Effect, %
COCCN1CCC(NC(=O)C2(c3cc(C)cc(C)c3)CC2)CC1	6.15
COCc1ccccc1C(=O)N1CCCC(n2nc(C)cc2C)C1 (configuration not stated)	-4.28
CN1CCN(C(=O)NC2CC2)Cc2cccnc21	-7.54
O=C(NCC(O)c1ccc(F)c(F)c1)c1cccnc1OCC(F)(F)F (configuration not stated)	-4.84
COCCN1C(=O)CC(N2CCN(c3ccc(OC)cc3)CC2)C1=O (configuration not stated)	-3.31

Prompt: Fill in reported Percent Effect for this entry: CC(C)C(=O)NCc1cccc(N2CCCCC2=O)c1
Completion: -12.3

Prompt: Fill in reported Percent Effect for this entry: COc1c(CNCc2ccc(CN(C)C)cc2)c(C)nn1C
Completion: -2.72

Prompt: Fill in reported Percent Effect for this entry: c1cncc(COCC2CN(Cc3ccco3)Cc3ccnn3C2)c1 (configuration not stated)
Completion: -2.33

Prompt: Fill in reported Percent Effect for this entry: COc1ccc2c(c1)CCN(CCC(=O)NC1CCCCC1)CC2
Completion: -1.4

Prompt: Fill in reported Percent Effect for this entry: COCCC(=O)N1CCN(C)c2ncccc2C1
Completion: 2.1

Prompt: Fill in reported Percent Effect for this entry: CN(CCN1CCOCC1)C(=O)CCCc1ccccc1
Completion: 0.287

Prompt: Fill in reported Percent Effect for this entry: Cc1noc(C)c1CNc1cc(N2CCCC2CO)ncn1 (configuration not stated)
Completion: -23.1
